experiment: Intravenous and intraduodenal bioavailability of zanamivir from three formulations (Example 5); conditions: male, Sprague-Dawley, rat, in vivo, 1.5 mg/animal, Plasma concentration, ID 1.5 mg/animal, Glycerol 50 µL; 0.25 hr; mean
TEST_READOUT: concentration at 0.25 hr (ng/mL)
// units = ng/mL; emit number, no label

Exercise: May I ask what concentration at 0.25 hr has been recorded for CC(=O)NC1C(NC(=N)N)C=C(C(=O)O)OC1C(O)C(O)CO (stereo not shown) ?
Solution: 928

###

assay: Intravenous and intraduodenal (bolus) bioavailability of zanamivir from Capmul MCM L8 25, 50, 75 µL (Example 7); details: male, Sprague-Dawley, rat, in vivo, 1.5 mg/animal, Plasma concentration, intraduodenal bolus, 75 μL Capmul MCM L8; 1.0 hr; mean of 3 rats
TEST_READOUT: concentration at 1 hr

Exercise: Any idea what its concentration at 1 hr is? The compound is CC(=O)NC1C(NC(=N)N)C=C(C(=O)O)OC1C(O)C(O)CO (stereo not shown) [Zanamivir]
Solution: 828 ng/mL

###

experiment: Intraduodenal bioavailability of zanamivir from glycerol and PBS formulations, enhancer pre-dose (Example 6); settings: male, Sprague-Dawley, rat, in vivo, 1.5 mg/animal, Plasma concentration, ID 1.5 mg/animal, 100 µL Glycerol; 1.0 hr; mean
TEST_READOUT: concentration at 1 hr (ng/mL)
Only the number, expressed in ng/mL, is required.

Exercise: Which concentration at 1 hr value belongs to CC(=O)NC1C(NC(=N)N)C=C(C(=O)O)OC1C(O)C(O)CO (stereo not shown) ?
Solution: 44.4

###

experiment: Intravenous and intraduodenal (bolus) bioavailability of zanamivir from Capmul MCM L8 25, 50, 75 µL (Example 7); details: male, Sprague-Dawley, rat, in vivo, 1.5 mg/animal, Plasma concentration, intraduodenal bolus, 75 μL Capmul MCM L8; 1.5 hr; rat 965
TEST_READOUT: concentration at 1.5 hr (ng/mL)
Dear colleague, please return just the value in ng/mL, with no unit written.

Exercise: Query (compound): CC(=O)NC1C(NC(=N)N)C=C(C(=O)O)OC1C(O)C(O)CO (stereo not shown) [Zanamivir] ; field requested: concentration at 1.5 hr
Solution: 372

###

assay: Intravenous and intraduodenal (bolus) bioavailability of zanamivir from Capmul MCM L8 25, 50, 75 µL (Example 7); details: male, Sprague-Dawley, rat, in vivo, iv, 1.5 mg/animal, Plasma concentration, IV 1.5 mg/animal, Normal Saline, Ex.7; 0.033 hr; mean
TEST_READOUT: concentration at 0.033 hr
Could you give the number and then its unit, please?

Exercise: Returns the measured concentration at 0.033 hr for the input molecule. Input: CC(=O)NC1C(NC(=N)N)C=C(C(=O)O)OC1C(O)C(O)CO (stereo not shown)
Solution: 21400 ng/mL

###

assay: Intravenous and intraduodenal bioavailability of zanamivir from three formulations (Example 5); settings: male, Sprague-Dawley, rat, in vivo, iv, 1.5 mg/animal, Plasma concentration, IV 1.5 mg/animal, Normal Saline, Ex.5; 2.0 hr; individual rats
TEST_READOUT: concentration at 2 hr (ng/mL)
Respond numerically; units are ng/mL and should not be typed.

Exercise: Recorded concentration at 2 hr of CC(=O)NC1C(NC(=N)N)C=C(C(=O)O)OC1C(O)C(O)CO (stereo not shown) , please.
Solution: 423

###

assay: Intravenous and intraduodenal (bolus) bioavailability of zanamivir from Capmul MCM L8 25, 50, 75 µL (Example 7); settings: male, Sprague-Dawley, rat, in vivo, 1.5 mg/animal, Plasma concentration, ID bolus 1.5 mg/animal, 50 µL Capmul MCM L8, Ex.7; 0.25 hr; mean
TEST_READOUT: concentration at 0.25 hr (ng/mL)
Give just the numeric value; ng/mL need not be written.

Exercise: Consider the molecule CC(=O)NC1C(NC(=N)N)C=C(C(=O)O)OC1C(O)C(O)CO (stereo not shown) and give its measured concentration at 0.25 hr.
Solution: 1580

###

assay: Intravenous and intraduodenal bioavailability of zanamivir from three formulations (Example 5); settings: male, Sprague-Dawley, rat, in vivo, 1.5 mg/animal, Plasma concentration, ID 1.5 mg/animal, Capmul MCM L8 50 µL, Ex.5; 0.5 hr; mean
TEST_READOUT: concentration at 0.5 hr (ng/mL)
State the answer as a number, implicitly in ng/mL.

Exercise: Param item = CC(=O)NC1C(NC(=N)N)C=C(C(=O)O)OC1C(O)C(O)CO (stereo not shown) ; retrieve measured concentration at 0.5 hr.
Solution: 2910

###

Test: Intravenous and intraduodenal bioavailability of zanamivir from three formulations (Example 5)
Conditions: male, Sprague-Dawley, rat, in vivo, iv, 1.5 mg/animal, Plasma concentration, IV 1.5 mg/animal, Normal Saline, Ex.5; 0.033 hr; individual rats
Protocol: Male Sprague-Dawley rats (Hilltop Labs), 3 animals per treatment group, 250-350 grams in weight, were fitted with a jugular vein cannula (JVC). […] In this example, the bioavailability of Zanamivir was evaluated after intravenous and intraduodenal doses in male Sprague-Dawley rats. […] Plasma levels were determined by LC-MS/MS analysis. […]
TEST_READOUT: concentration at 0.033 hr
Could you kindly put the unit after your number?

Exercise: Consider the compound shown here: CC(=O)NC1C(NC(=N)N)C=C(C(=O)O)OC1C(O)C(O)CO (stereo not shown) What is its recorded concentration at 0.033 hr?
Solution: 26900 ng/mL

###

experiment: Intravenous and intraduodenal (bolus) bioavailability of zanamivir from Capmul MCM L8 25, 50, 75 µL (Example 7); details: male, Sprague-Dawley, rat, in vivo, 1.5 mg/animal, Plasma concentration, ID bolus 1.5 mg/animal, 25 µL Capmul MCM L8; 0.5 hr; individual rats
TEST_READOUT: concentration at 0.5 hr
Reply with the number and its unit after it.

Exercise: I am curious: what concentration at 0.5 hr value has been reported for CC(=O)NC1C(NC(=N)N)C=C(C(=O)O)OC1C(O)C(O)CO (stereo not shown) ?
Solution: 916 ng/mL

###

test: Intravenous and intraduodenal bioavailability of zanamivir from three formulations (Example 5); details: male, Sprague-Dawley, rat, in vivo, 1.5 mg, t1/2, ID 1.5 mg/animal, PBS 50 µL; individual rats
TEST_READOUT: half-life
Provide a numeric answer, followed by its unit.

Exercise: May I ask what half-life has been recorded for CC(=O)NC1C(NC(=N)N)C=C(C(=O)O)OC1C(O)C(O)CO (stereo not shown) ?
Solution: 49.8 min

###

experiment: Intravenous and intraduodenal (bolus) bioavailability of zanamivir from Capmul MCM L8 25, 50, 75 µL (Example 7); conditions: male, Sprague-Dawley, rat, in vivo, 1.5 mg, t1/2, ID bolus 1.5 mg/animal, 25 µL Capmul MCM L8; individual rats
TEST_READOUT: half-life (min)
The reply should contain only the number, in min.

Exercise: # lookup: half-life of CC(=O)NC1C(NC(=N)N)C=C(C(=O)O)OC1C(O)C(O)CO (stereo not shown) [Zanamivir]
Solution: 24.5

###

experiment: Intravenous and intraduodenal (bolus) bioavailability of zanamivir from Capmul MCM L8 25, 50, 75 µL (Example 7); details: male, Sprague-Dawley, rat, in vivo, 1.5 mg/animal, Plasma concentration, intraduodenal bolus, 75 μL Capmul MCM L8; 0.25 hr; rat 963
TEST_READOUT: concentration at 0.25 hr (ng/mL)
Provide only the numeric value, understood in ng/mL.

Exercise: concentration at 0.25 hr lookup needed for CC(=O)NC1C(NC(=N)N)C=C(C(=O)O)OC1C(O)C(O)CO (stereo not shown) [Zanamivir] , thanks.
Solution: 2560

###

test: Intravenous and intraduodenal (bolus) bioavailability of zanamivir from Capmul MCM L8 25, 50, 75 µL (Example 7); settings: male, Sprague-Dawley, rat, in vivo, 1.5 mg/animal, Plasma concentration, ID bolus 1.5 mg/animal, 25 µL Capmul MCM L8; 1.0 hr; mean
TEST_READOUT: concentration at 1 hr (ng/mL)
Numbers only; they are read as ng/mL.

Exercise: Returns the measured concentration at 1 hr for the input compound. Input: CC(=O)NC1C(NC(=N)N)C=C(C(=O)O)OC1C(O)C(O)CO (stereo not shown) [Zanamivir]
Solution: 341

###

assay: Intravenous and intraduodenal (bolus) bioavailability of zanamivir from Capmul MCM L8 25, 50, 75 µL (Example 7); details: male, Sprague-Dawley, rat, in vivo, 1.5 mg/animal, Plasma concentration, ID bolus 1.5 mg/animal, 50 µL Capmul MCM L8, Ex.7; 0.5 hr; individual rats
TEST_READOUT: concentration at 0.5 hr (µg/mL)
Write it as a number; the unit µg/mL goes unstated.

Exercise: Quick check: concentration at 0.5 hr of CC(=O)NC1C(NC(=N)N)C=C(C(=O)O)OC1C(O)C(O)CO (stereo not shown) ?
Solution: 1.25

###

Experiment: Intravenous and intraduodenal (bolus) bioavailability of zanamivir from Capmul MCM L8 25, 50, 75 µL (Example 7)
Conditions: male, Sprague-Dawley, rat, in vivo, iv, 1.5 mg/animal, Plasma concentration, IV 1.5 mg/animal, Normal Saline, Ex.7; 2.0 hr; individual rats
Protocol: Male Sprague-Dawley rats (Hilltop Labs), 3 animals per treatment group, 250-350 grams in weight, were fitted with a jugular vein cannula (JVC). Animals intended for intraduodenal dosing were also fitted with one or more intraduodenal cannula (IDC) and those intended for intravenous dosing were fitted with a second JVC. […] In this example, the bioavailability of Zanamivir was evaluated after intraduodenal doses in male Sprague-Dawley rats. […] Plasma levels were determined by LC-MS/MS analysis. […]
TEST_READOUT: concentration at 2 hr (ng/mL)
I only need the number, in ng/mL, no unit after it.

Exercise: Could you tell me which concentration at 2 hr is on file for CC(=O)NC1C(NC(=N)N)C=C(C(=O)O)OC1C(O)C(O)CO (stereo not shown) ?
Solution: 278
